Recorded values, source paper PMC9100969.

- Substrate: CC(=O)Oc1ccc([N+](=O)[O-])cc1
- method.description: purified protein
- Format: biochemical, Sutcliffiella cohnii
- condition.context: 50 mM Tris-HCl pH 8.0, 20 °C
quantity: kcat (s⁻¹)
Field: numeric (s⁻¹). Do not append units.

# example entries with known answers
(Q) What does the data say about its kcat? Entry: EstN7 (Sutcliffiella cohnii; M187A/N211A) (protein, recombinant, purified from E. coli BL21(DE3); dimer; catalytic triad S157, D254, H284) MKNRIDPELRAMLDMFPPLNLDDVQATRKAMEEAAQLTELPVDEEVVVSNRMVPGPEDNPYVRVRIYEPKEKIEKLPGLLWIHGGGYVLGAPEGDDLLCQRFVKEANCVVVSVDYRLAPEHPYPAPLEDCYAALQWFAKKVDELGVDASRIGVGGQSAGGGLTAALALLARDRKGPELCFQMPLYPAIDDKNNSPSSLEITGNLIWNHDLAEKGWSMYLDGKNGTDDVPVHAAPARATDLTNLPYTYTCVGQLDPFRDETLDYVKRLCQAGVDVEFHLYPGAYHGFETLNPAAAVSQRALAEYVGAVKHVLNREKVVERK
(A) 361

(Q) What does the data say about its kcat? Entry: EstN7 (Sutcliffiella cohnii; N211A) (protein, recombinant, purified from E. coli BL21(DE3); dimer; catalytic triad S157, D254, H284) MKNRIDPELRAMLDMFPPLNLDDVQATRKAMEEAAQLTELPVDEEVVVSNRMVPGPEDNPYVRVRIYEPKEKIEKLPGLLWIHGGGYVLGAPEGDDLLCQRFVKEANCVVVSVDYRLAPEHPYPAPLEDCYAALQWFAKKVDELGVDASRIGVGGQSAGGGLTAALALLARDRKGPELCFQMPLYPMIDDKNNSPSSLEITGNLIWNHDLAEKGWSMYLDGKNGTDDVPVHAAPARATDLTNLPYTYTCVGQLDPFRDETLDYVKRLCQAGVDVEFHLYPGAYHGFETLNPAAAVSQRALAEYVGAVKHVLNREKVVERK
(A) 280

(Q) What does the data say about its kcat? Entry: EstN7 (Sutcliffiella cohnii) (protein, recombinant, purified from E. coli BL21(DE3); dimer; catalytic triad S157, D254, H284) MKNRIDPELRAMLDMFPPLNLDDVQATRKAMEEAAQLTELPVDEEVVVSNRMVPGPEDNPYVRVRIYEPKEKIEKLPGLLWIHGGGYVLGAPEGDDLLCQRFVKEANCVVVSVDYRLAPEHPYPAPLEDCYAALQWFAKKVDELGVDASRIGVGGQSAGGGLTAALALLARDRKGPELCFQMPLYPMIDDKNNSPSSLEITGNLIWNHDLNEKGWSMYLDGKNGTDDVPVHAAPARATDLTNLPYTYTCVGQLDPFRDETLDYVKRLCQAGVDVEFHLYPGAYHGFETLNPAAAVSQRALAEYVGAVKHVLNREKVVERK
(A) 760

Okay, now this protein:
(Q) What does the data say about its kcat? Entry: EstN7 (Sutcliffiella cohnii; W206A) (protein, recombinant, purified from E. coli BL21(DE3); dimer; catalytic triad S157, D254, H284) MKNRIDPELRAMLDMFPPLNLDDVQATRKAMEEAAQLTELPVDEEVVVSNRMVPGPEDNPYVRVRIYEPKEKIEKLPGLLWIHGGGYVLGAPEGDDLLCQRFVKEANCVVVSVDYRLAPEHPYPAPLEDCYAALQWFAKKVDELGVDASRIGVGGQSAGGGLTAALALLARDRKGPELCFQMPLYPMIDDKNNSPSSLEITGNLIANHDLNEKGWSMYLDGKNGTDDVPVHAAPARATDLTNLPYTYTCVGQLDPFRDETLDYVKRLCQAGVDVEFHLYPGAYHGFETLNPAAAVSQRALAEYVGAVKHVLNREKVVERK
(A) 1.5
